The entries below are paired with their reported TGI.
System: EKVX NSCLC
measurement-description: NCI tumour cell line growth inhibition, 48 h
measured-metric: TGI

CCN(CC)CCn1ccc(=O)c2cc3c(=O)ccn(CCN(CC)CC)c3c(C)c21 : 18.8 µM
CC(C)NC[C@@H](C(=O)N1CCN(c2ncnc3c2[C@H](C)C[C@H]3O)CC1)c1ccc(Cl)cc1 : > 10 µM
Cc1ccc2c(ccc3c[n+]4c5ccccc5ccc4n32)c1 : 25.4 µM
O=c1c2ncn(C3CC(O)C(CO)O3)c2nnn1Cc1ccccc1[N+](=O)[O-] (centres undefined) : > 100 µM
COc1cccc(NC(=O)CC(=O)N2N=C(N(CCC#N)c3ccc(Cl)cc3)CC2c2ccccc2)c1 (centres undefined) : > 100 µM
COc1ccc(Nc2nc3ccc(C(F)(F)F)cc3nc2C(=O)O)cc1OC : > 100 µM
COc1cc(Cl)cc(-c2nn(C(=O)NCCN3CCOCC3)cc2-c2ccncc2)c1 : 79.9 µM
CC(C)(C)C[C@H]1NC(C(=O)NCC[C@H](O)CO)[C@H](c2cccc(Cl)c2)[C@@]12C(=O)Nc1cc(Cl)c(F)cc12 (some centres undefined) : 29.1 µM
CC(=O)OC[C@]1(C(=O)C(O)c2ccoc2)[C@H](C)CC[C@@]23COC(=O)C2=CCC[C@@H]31 (some centres undefined) : > 10 µM

* * *

Below, each entry is listed alongside its reported TGI.
Test system: HT29 colon
measurement-description: NCI tumour cell line growth inhibition, 48 h
measured-metric: TGI (µM)

CCN(CC)CCNc1ccc2nnn3c4ccc(OC)cc4c(=O)c1c23 : 15.9
CC/C=C\C=C/C(=O)N/C=C/CC1Cc2cccc(O)c2C(=O)O1 (stereo not given) : 53.7

* * *

Tested on: COLO 205 colon
measurement-description: NCI tumour cell line growth inhibition, 48 h
measured-metric: TGI (nM)

CN(CCCN)CCCNc1nc2ccccc2c2[nH]c3ccccc3c12 : 509
COC(=O)[C@@H](C)C[C@H](Cc1ccccc1)NC(=O)c1nc([C@@H](C[C@H](C(C)C)N(C)C(=O)[C@@H](NC(=O)[C@H]2CCCCN2C)C(C)C)OC(C)=O)sc1C : 9.26

* * *

Each item that follows carries a reported GI50.
System: UO-31 renal
measurement-description: NCI tumour cell line growth inhibition, 48 h
measured-metric: GI50

CNC(=O)n1ccc2cc(Oc3ccnc(NC(=O)c4ccc(C5CCN(CCO)CC5)cc4)c3)c(OCCOC)cc21 : 16.5 µM
COC(=O)/C=C/C=C(c1ccccc1)c1ccccc1 : 3.27 µM
CCCCCCCCCC[C@H](O)[C@H]1CC[C@H]([C@H]2CC[C@H]([C@H](O)CC[C@H](O)CCCCCCC[C@@H](O)CC3=C[C@H](C)OC3=O)O2)O1 : 23.6 µM
Cc1c(C(=O)/C=C/c2csc3ccccc23)[n+](=O)c2ccccc2n1[O-] : 1.24 µM
COc1ccc(N2C(C)=C(C#N)C34C(=O)N(c5ccccc5)C(=O)C3=C(O)C=CC24O)cc1 (stereo not drawn) : 13.9 µM
CN(C)S(=O)(=O)c1ccc(NC(=O)COC(=O)c2ccc(S(=O)(=O)N3CCCCC3)cc2)cc1 : > 100 µM
CCN1C(=O)N(CC)C2C1NN=c1s/c(=C\c3cccnc3)c(=O)n12 (stereo not drawn) : 1.53 µM
Cc1[c-]onc1C.Cc1[c-]onc1C.[Ag].[Ag].[NH-]S(=O)(=O)c1ccc(N=Nc2cc(N=Nc3ccc(S([NH-])(=O)=O)cc3)c3c(NC(=O)C(Cl)Cl)cccc3c2OC(=O)C(Cl)Cl)cc1 : 6.06 µM
